// data source = patent US20250042994A1

This listing pairs binders with measured pKd.
# MEASUREMENT_TARGET: T1, Human CD19-his protein (human, UniProt P15391 20-291)
# T1 construct: bought protein; also called recombinant human CD19-His; CD19 full-length protein; not shown: His tag
# T1 sequence (looked up): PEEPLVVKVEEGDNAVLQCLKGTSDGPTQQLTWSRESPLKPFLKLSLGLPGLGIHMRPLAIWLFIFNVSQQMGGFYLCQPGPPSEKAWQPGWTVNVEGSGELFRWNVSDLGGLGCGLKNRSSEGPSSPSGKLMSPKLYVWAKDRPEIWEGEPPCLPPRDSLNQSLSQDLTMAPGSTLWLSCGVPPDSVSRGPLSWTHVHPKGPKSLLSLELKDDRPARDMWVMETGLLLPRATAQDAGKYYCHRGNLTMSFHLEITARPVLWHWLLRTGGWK
# ASSAY_PROTOCOL: SPR Biacore, Ab captured on Protein A, CD19-His analyte
Value format note: pKd is -log10 of concentration (mol/L); just state the number.

| BINDER | pKd |
| --- | --- |
| F3.113.16 (antibody, human IgG1, V domains shown, human-murine chimeric antibody, human IgG1 constant) VH: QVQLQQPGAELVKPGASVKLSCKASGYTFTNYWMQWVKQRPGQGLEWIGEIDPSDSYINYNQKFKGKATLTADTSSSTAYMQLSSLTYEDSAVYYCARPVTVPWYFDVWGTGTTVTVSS VL: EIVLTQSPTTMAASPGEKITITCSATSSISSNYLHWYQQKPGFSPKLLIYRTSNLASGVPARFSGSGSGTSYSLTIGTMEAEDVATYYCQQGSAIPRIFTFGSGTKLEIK | 7.91 |

Give its pKd value. Item: F5.2.9 (antibody, human IgG1, V domains shown, human-murine chimeric antibody, human IgG1 constant) VH: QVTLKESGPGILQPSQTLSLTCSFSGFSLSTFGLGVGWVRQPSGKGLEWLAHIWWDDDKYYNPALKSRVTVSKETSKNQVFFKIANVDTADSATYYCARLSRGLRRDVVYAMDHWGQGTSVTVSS VL: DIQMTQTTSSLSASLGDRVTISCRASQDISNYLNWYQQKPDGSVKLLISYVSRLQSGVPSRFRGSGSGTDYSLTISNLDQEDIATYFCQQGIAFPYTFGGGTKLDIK
7.80
